Recorded measurements of Peptide MIC, one per entry
# Test system: A. baumannii ATCC 19606
# testParameters: ATCC 19606
Square brackets hold non-standard residues; d marks the D form. Peptide text beside a SMILES is read from it. * marks the point of attachment. d(aIle) = CC[C@H](C)[C@@H](N)C(=O)O; X1 = CC[C@H](C)CCCCC(=O)*; dDab = NCC[C@@H](N)C(=O)O; Dab = NCC[C@H](N)C(=O)O

Take a look at these entries with their results.
>  <compound>
CC[C@H](C)CCCCC(=O)NCC(=O)N[C@H](CCN)C(=O)NCC(=O)N[C@H](CO)C(=O)N[C@H](Cc1c[nH]c2ccccc12)C(=O)N[C@@H](CO)C(=O)N[C@@H](CCN)C(=O)N[C@H](CCN)C(=O)N[C@H](C(=O)N[C@@H](CCC(=O)O)C(=O)N[C@H](C(=O)N[C@@H](C(=O)N[C@@H](CO)C(=O)O)[C@@H](C)CC)[C@@H](C)CC)C(C)C [M7] (X1-G[dDab]G[dS][dW]S[Dab][dDab]VEI[d(aIle)]S-OH)

>  <tgt>
A. baumannii ATCC 19606

>  <Peptide MIC>
>32 µg/mL

$$$$
>  <compound>
CC[C@H](C)CCCCC(=O)NCC(=O)N[C@H](CCN)C(=O)NCC(=O)N[C@H](CO)C(=O)N[C@H](Cc1c[nH]c2ccccc12)C(=O)N[C@@H](CO)C(=O)N[C@@H](CCN)C(=O)N[C@H](CCN)C(=O)N[C@H](C(=O)N[C@@H](CCC(=O)O)C(=O)N[C@H](C(=O)N[C@@H](C(=O)N[C@@H](CO)C(=O)O)[C@@H](C)CC)[C@@H](C)CC)[C@@H](C)CC [M1, tridecaptin M] (X1-G[dDab]G[dS][dW]S[Dab][dDab]IEI[d(aIle)]S-OH)

>  <tgt>
A. baumannii ATCC 19606

>  <Peptide MIC>
64 µg/mL

$$$$
>  <compound>
CC[C@H](C)CCCCC(=O)NCC(=O)N[C@H](CCN)C(=O)NCC(=O)N[C@H](CO)C(=O)N[C@H](Cc1c[nH]c2ccccc12)C(=O)N[C@@H](CO)C(=O)N[C@@H](CCN)C(=O)N[C@H](CCN)C(=O)N[C@H](C(=O)N[C@@H](CCC(=O)O)C(=O)N[C@H](C(=O)N[C@@H](C(=O)N[C@@H](CO)C(=O)O)C(C)C)[C@@H](C)CC)[C@@H](C)CC [M6] (X1-G[dDab]G[dS][dW]S[Dab][dDab]IEI[dV]S-OH)

>  <tgt>
A. baumannii ATCC 19606

>  <Peptide MIC>
>32 µg/mL

$$$$

Name the reported Peptide MIC value associated with the compound CC[C@H](C)CCCCC(=O)NCC(=O)N[C@H](CCN)C(=O)NCC(=O)N[C@H](CO)C(=O)N[C@H](Cc1ccccc1)C(=O)N[C@@H](CO)C(=O)N[C@@H](CCN)C(=O)N[C@H](CCN)C(=O)N[C@H](C(=O)N[C@@H](CCC(=O)O)C(=O)N[C@H](C(=O)N[C@@H](C(=O)N[C@@H](CO)C(=O)O)C(C)C)[C@@H](C)CC)[C@@H](C)CC [M5] (X1-G[dDab]G[dS][dF]S[Dab][dDab]IEI[dV]S-OH)
>32 µg/mL
